Numbers sourced from patent US12617779B2.

# experiment-summary: Evaluation of conversion rate to active form in BALB/c mouse plasma (Experimental Example 3)
# Format: in vitro ADME
# details: BALB/c, mouse, 120 min, 0.2 μmol/L
experimental-readout: Residual rate (%) of test compound
Give the quantity in %, number only.

// worked examples, Residual rate (%) of test compound included
1) CCC(=O)O[C@@H]1CN(C)CC[C@@H]1c1c(O)cc(O)c2c(=O)cc(-c3ccccc3Cl)oc12 ... 33
2) CCNC(=O)O[C@@H]1CN(C)CC[C@@H]1c1c(O)cc(O)c2c(=O)cc(-c3ccccc3Cl)oc12 [Comparative Example 4, reference compound] ... 92
3) CN1CC[C@H](c2c(O)cc(O)c3c(=O)cc(-c4ccccc4Cl)oc23)[C@H](OC(=O)CN)C1 [Comparative Example 8, reference compound] ... 4
4) CN1CC[C@H](c2c(O)cc(O)c3c(=O)cc(-c4ccccc4Cl)oc23)[C@H](OC(=O)c2ccccc2F)C1 ... 76

Any idea what its Residual rate (%) of test compound is? The molecule is C[C@H](N)C(=O)O[C@@H]1CN(C)CC[C@@H]1c1c(O)cc(O)c2c(=O)cc(-c3ccccc3Cl)oc12 [Comparative Example 7, reference compound]
10

Param item: CC(C)[C@H](N)C(=O)O[C@@H]1CN(C)CC[C@@H]1c1c(O)cc(O)c2c(=O)cc(-c3ccccc3Cl)oc12 [Comparative Example 10, reference compound]
89

Now the same for CCOC(=O)O[C@@H]1CN(C)CC[C@@H]1c1c(O)cc(O)c2c(=O)cc(-c3ccccc3Cl)oc12 [Comparative Example 3, reference compound]
78

Entry CN1CC[C@H](c2c(O)cc(O)c3c(=O)cc(-c4ccccc4Cl)oc23)[C@H](OC(=O)[C@@H](N)CO)C1 [Comparative Example 9, reference compound] please
54
